- Test system: OVCAR-8 ovarian
- measurement-protocol: NCI-60 one-dose screen, 48 h (100 = growth as untreated, 0 = no growth, -100 = all killed)
- experimental-context: 10 µM unless noted
The panel holds about 83,000 compounds, 20% with a hit somewhere; the sample as a whole holds those more often.
readout-label: growth (%)
Answers are plain numbers, in %.

Check out these entries, answers already filled in.
N=c1ccc2nc3ccc(N)cc3sc-2c1 = 13.5
CN1CCN(Cc2ccc(NC(=O)c3cncc(C#Cc4cnc(N)c5cnccc45)c3)cc2C(F)(F)F)CC1 = 23.8
O=C(NS(=O)(=O)c1ccccc1)n1cc(-c2ccncc2)c(-c2ccc(Cl)c(O)c2)n1 = 105
C=C1CCC[C@]2(C)CCC[C@H](C)[C@@H](OC(C)=O)[C@@H]3OC(=O)C(=C)[C@@H]3C[C@H]1O2 = 61.5
Cc1cc(C2=NNC(=O)Cc3cc4c(cc32)OCCO4)cc(C)c1N = 54.8

Look at each compound and report its growth.
1. Cn1cnc2c(N3CCN(C(=O)OCc4ccc5c(Cl)cc(Cl)c(O)c5n4)CC3)nc(Cl)nc21
2. O=Nc1c(-c2cccc([N+](=O)[O-])c2)nc2ncccn12
3. COC(=O)[C@]12CC[C@@H](C)[C@H](C)[C@@H]1C1=CC[C@@H]3[C@@]4(C)C(C=O)=C[C@@](C)(COC(=O)c5ccco5)[C@@H]4[C@H](O)C[C@@]3(C)[C@]1(C)CC2

[51.3, 81.1, -3.22]

Just for reference, PubChem BioAssay (NCI) is where these values come from.
